- subject of test: full-length human BTK[C481S] (GST-BTK[C481S]) (Homo sapiens, UniProt Q06187, C481S)
- Sequence (Q06187 2-659 C481S): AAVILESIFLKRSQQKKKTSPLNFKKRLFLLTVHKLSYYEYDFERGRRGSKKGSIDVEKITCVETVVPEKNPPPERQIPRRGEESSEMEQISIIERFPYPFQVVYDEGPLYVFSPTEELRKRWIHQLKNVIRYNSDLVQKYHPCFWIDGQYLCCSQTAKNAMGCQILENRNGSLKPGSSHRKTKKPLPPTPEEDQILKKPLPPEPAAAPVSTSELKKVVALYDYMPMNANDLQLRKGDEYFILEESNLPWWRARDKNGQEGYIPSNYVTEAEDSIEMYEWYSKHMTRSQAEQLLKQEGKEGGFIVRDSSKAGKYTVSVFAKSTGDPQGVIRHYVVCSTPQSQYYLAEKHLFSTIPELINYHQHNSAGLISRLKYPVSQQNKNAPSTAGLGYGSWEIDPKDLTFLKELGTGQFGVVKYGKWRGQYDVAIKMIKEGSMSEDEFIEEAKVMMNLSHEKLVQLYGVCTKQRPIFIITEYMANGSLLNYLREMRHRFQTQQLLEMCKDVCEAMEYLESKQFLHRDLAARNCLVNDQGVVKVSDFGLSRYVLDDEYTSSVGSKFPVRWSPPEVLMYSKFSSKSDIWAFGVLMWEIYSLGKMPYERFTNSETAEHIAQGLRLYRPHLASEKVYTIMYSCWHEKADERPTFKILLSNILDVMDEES
- assay protocol: Off-chip Mobility Shift Assay (MSA), tyrosine kinase inhibition, BTK[C481S]
Here, each record is paired with measured IC50 data.

mol_smiles=CNC1CCN(CCn2nc(-c3ccc(NC(=O)OC(C)(C)C)c(OC)c3)c3c(N)ncnc32)CC1 subject_of_test="full-length human BTK[C481S] (GST-BTK[C481S]) (Homo sapiens, UniProt Q06187, C481S)" reported_result="16.3 nM"

Give its IC50 value. Item: COc1cc(-c2nn(CCN3CCC(N(C)C)CC3)c3ncnc(N)c23)ccc1NC(=O)OC(C)(C)C
16.3 nM
